Data origin: paper PMC6718736

# Test system: CYP2B6
# test-method-notes: CYP2B6 enzyme induction assay in cryopreserved primary human hepatocytes (PHH);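 further: code 1 means positive inducer and 0 means non-inducer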
# Assay type: in vitro ADME
# protocol-conditions: PHH; Lab 1; batch 8 0 8
Counter-ions that a name gives are not always drawn.
readout-type: Assigned classification CYP2B6

molecule	Assigned classification CYP2B6
COCCc1ccc(OCC(O)CNC(C)C)cc1 (stereo not shown)	0
CO[C@H]1/C=C/O[C@@]2(C)Oc3c(C)c(O)c4c(c3C2=O)C2=NC3(CCN(CC(C)C)CC3)NC2=C(NC(=O)/C(C)=C\C=C\[C@H](C)[C@H](O)[C@@H](C)[C@@H](O)[C@@H](C)[C@H](OC(C)=O)[C@@H]1C)C4=O	1

A. CO[C@H]1/C=C/O[C@@]2(C)Oc3c(C)c(O)c4c(O)c(c(/C=N/N5CCN(C)CC5)c(O)c4c3C2=O)NC(=O)/C(C)=C\C=C\[C@H](C)[C@H](O)[C@@H](C)[C@@H](O)[C@@H](C)[C@H](OC(C)=O)[C@@H]1C
B. CC(C)NCC(O)c1ccc(NS(C)(=O)=O)cc1 (stereo not shown) [Sotalol hydrochloride]
## Input Name the one with the greater Assigned classification CYP2B6 value, either A or B as given. Your answer should be the label of the entry you select.
## Output A
(A: 1, B: 0)
